Taken from PubChem BioAssay (NCI).

Test system: CAKI-1 renal
Experiment: NCI tumour cell line growth inhibition, 48 h; in the data active = GI50 below about 0.43 µM; inactive = the rest
Choose the fitting class; nothing outside active, inactive is accepted.

In this assay, the call recorded for `NS(=O)(=O)c1cccc(-c2cc3ccncc3cc2OCc2ccccc2)c1` was what?
inactive

// param item: Cc1cc(C(=O)N2CCN(C)CC2)c2c(=O)n(-c3ccccc3)c(=O)n(CC(O)CN3CCN(c4ncccn4)CC3)c2n1 (stereo not given) ; yields the recorded call
inactive

Which result was noted for this compound in the test: `Oc1[nH]c2ccc(Cl)cc2c1/C=c1/ccc2c(c1)N=C(c1ccc(C(F)(F)F)cc1)N=2`
inactive

Can you look up the reported call for `COc1cc(-c2nccc3[nH]c(-c4cccc5[nH]ccc45)nc23)cc(OC)c1OC` for me?
active

Please share the test call associated with `COc1ccc(-c2nnc(Nc3nc(O)c(C4=c5cc(OC(F)(F)F)ccc5=NC4=O)s3)o2)cc1` .
inactive

Test call, this compound: Cc1ccc(NC(C(=O)c2ccccc2)c2ccccc2)cc1 (stereo not given)
inactive

Could you kindly confirm the outcome this assay logged for Nc1ncnc2c1nc(N)n2C1OC(CO)C(O)C1O (stereo not given) ?
active

# outcome recorded in this test, key = `CCOC(=O)C1=C(C)NC(C)=C(C(=O)OCC)C1c1cc(Br)c(O)c(OC)c1`
inactive

Recorded test outcome, item `Cc1ccn2c(-c3csc(Nc4cccc(O)c4)n3)c(C)nc2c1`
inactive

Short answer needed: outcome of this test for `O=C(N/N=C/c1ccncc1)c1ccc(C(F)(F)F)nc1Nc1cccc(C(F)(F)F)c1` ?
inactive

###

Tested on: NCI-H460 lung
Assay: NCI tumour cell line growth inhibition, 48 h; in the data active means GI50 below about 0.43 µM; inactive means the rest
Valid outcomes are listed here; reply with one: active, inactive

Hi team, can someone confirm the assay call for `CCc1ccc(Oc2nccc(-c3c(-c4ccc(F)cc4)ncn3C3CCNCC3)n2)cc1` ?
inactive

What did this assay record as the result for Nc1nccc2c1ncn2C1C=C(CO)C(O)C1O (stereo not drawn) ?
inactive

Would you mind telling me which call this test gave `Cc1cc(N2CCN(C)CC2)nc(N(CCNc2ccnc3cc(Cl)ccc23)Cc2ccco2)n1` ?
inactive

Per the assay record, what outcome was assigned to `NS(=O)(=O)c1cccc(-c2cc3ccncc3cc2OCc2ccccc2)c1` ?
inactive

# fetch the recorded call for COc1cccc2c1C(=O)c1c(O)c3c(c(O)c1C2=O)C[C@@](O)(C(C)=O)C[C@@H]3OC1CC(N(C)C)C(O)C(C)O1 (stereo partly drawn) here
active

Which outcome did this test record for the compound `C=CC(=O)N1CC2(CC(n3nc(-c4ccc(Oc5ccccc5)cc4)c4c(N)ncnc43)C2)C1` ?
inactive

What classification did `N#Cc1ccc(N2Cc3cc(Cl)ccc3OC3=C2C(=O)N(Cc2ccc(F)cc2)C3=O)cc1` end up with in this test?
inactive

Please let me know the test result on file for Cc1cc(C(=O)N2CCN(C)CC2)c2c(=O)n(-c3ccccc3)c(=O)n(CC(O)CN3CCN(c4ncccn4)CC3)c2n1 (stereo not drawn) .
inactive

I would be grateful if you could indicate the recorded call for `O=C(N/N=C/c1ccncc1)c1ccc(C(F)(F)F)nc1Nc1cccc(C(F)(F)F)c1` .
inactive

Which outcome was entered for the compound `CC[C@@]1(O)C(=O)OCc2c1cc1n(c2=O)Cc2cc3c(Cl)c4c(cc3nc2-1)OCO4` in this test?
active

Field: outcome | Entry: `CCCCCCCCn1ccc2cc(NC(=O)Cn3cc(CN4CCC(C)CC4)nn3)ccc21`
inactive

Please indicate how the test categorized COc1ccc(C2c3cc4c(c(OC)c3CC3OCC(=O)C32)OCO4)cc1OC (stereo not drawn) .
active

GET /call?item= `O=Cc1c[nH]c2ccc(-c3csc4ccccc34)cc12` returns the recorded outcome of this test.
inactive

Fill in: this test's call for `COc1cc2c(cc1OCc1ccccc1)N=C[C@@H]1C[C@@H](F)CN1C2=O` is ___
inactive

// return assay outcome for `Oc1[nH]c2ccc(Cl)cc2c1/C=c1/ccc2c(c1)N=C(c1ccc(C(F)(F)F)cc1)N=2`
inactive

How was `O=[N+]([O-])c1ccc(N/N=C/c2ccccc2O)nc1` classified in this test?
inactive

So what was the verdict on `c1cc2ccc3cc2cc1CNCCOCCNCc1ccc2ccc(cc2c1)CNCCOCCNC3` in this test?
inactive

Outcome? `O=c1c(-c2ccc3c(c2)OCO3)coc2c(CO)c(O)ccc12`
inactive
